In this section we review reported IC50 values for a set of compounds.
target: Nox2 (Homo sapiens, UniProt P04839); construct: superoxide originates from the endogenous Nox2 enzyme system; endogenous in cells; host or cells: isolated human neutrophils, PMA-stimulated; assay: Cytochrome c reduction assay for superoxide in activated human neutrophils; format: cell-based; details: isolated human neutrophils, PMA-activated, absorbance at 550 nm
Sequence (P04839 2-570 limits assumed): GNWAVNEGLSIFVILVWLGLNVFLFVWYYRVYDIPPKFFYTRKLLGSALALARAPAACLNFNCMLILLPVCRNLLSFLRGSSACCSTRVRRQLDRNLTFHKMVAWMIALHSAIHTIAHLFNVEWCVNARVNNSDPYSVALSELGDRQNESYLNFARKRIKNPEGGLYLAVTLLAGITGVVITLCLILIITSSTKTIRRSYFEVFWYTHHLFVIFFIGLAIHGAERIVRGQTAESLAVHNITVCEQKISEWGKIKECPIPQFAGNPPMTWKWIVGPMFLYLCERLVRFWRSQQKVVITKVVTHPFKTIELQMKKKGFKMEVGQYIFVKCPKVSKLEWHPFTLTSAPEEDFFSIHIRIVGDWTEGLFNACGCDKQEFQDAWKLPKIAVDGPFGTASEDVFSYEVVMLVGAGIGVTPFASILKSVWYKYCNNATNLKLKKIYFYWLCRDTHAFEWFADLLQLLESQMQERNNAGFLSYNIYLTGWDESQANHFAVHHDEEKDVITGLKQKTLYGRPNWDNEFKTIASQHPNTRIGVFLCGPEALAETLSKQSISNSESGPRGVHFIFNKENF
Sequence (P13498 2-195 partner limits assumed): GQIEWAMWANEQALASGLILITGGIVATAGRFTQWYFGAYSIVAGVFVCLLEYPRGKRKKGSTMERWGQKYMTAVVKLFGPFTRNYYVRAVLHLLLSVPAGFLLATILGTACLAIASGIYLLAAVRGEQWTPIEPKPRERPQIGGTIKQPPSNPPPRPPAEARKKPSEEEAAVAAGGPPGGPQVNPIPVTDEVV
Unit µM implied. Number only.

Completed entries (count: 2):
CN(C)CCCn1c(SCC(=O)Nc2nc(-c3ccc(Br)cc3)cs2)nc2ccccc2c1=O [AS148A]	1
CC(Sc1nc2ccccc2c(=O)n1CCCN(C)C)C(=O)Nc1nc(-c2cccc(Br)c2)cs1 (centres unmarked)	2

Can you share its IC50? I mean this compound: CN(C)CCCCn1c(SCC(=O)Nc2nc(-c3cccc(Br)c3)cs2)nc2ccccc2c1=O
1.5

IC50 lookup needed for CN(C)CCCCn1c(SCC(=O)Nc2nc(-c3ccc(Br)cc3)cs2)nc2ccccc2c1=O [AS158B] , thanks.
3

Sample CCN(CC)CCCn1c(SCC(=O)Nc2nc(-c3ccc(Br)cc3)cs2)nc2ccccc2c1=O [AS158A] — what was its IC50?
0.6

###

target: human Myeloperoxidase (Homo sapiens, UniProt P05164); assay: Amplex Red assay of purified MPO activity; format: biochemical; conditions: isolated purified human MPO, hydrogen peroxide as substrate
Sequence (P05164 49-745): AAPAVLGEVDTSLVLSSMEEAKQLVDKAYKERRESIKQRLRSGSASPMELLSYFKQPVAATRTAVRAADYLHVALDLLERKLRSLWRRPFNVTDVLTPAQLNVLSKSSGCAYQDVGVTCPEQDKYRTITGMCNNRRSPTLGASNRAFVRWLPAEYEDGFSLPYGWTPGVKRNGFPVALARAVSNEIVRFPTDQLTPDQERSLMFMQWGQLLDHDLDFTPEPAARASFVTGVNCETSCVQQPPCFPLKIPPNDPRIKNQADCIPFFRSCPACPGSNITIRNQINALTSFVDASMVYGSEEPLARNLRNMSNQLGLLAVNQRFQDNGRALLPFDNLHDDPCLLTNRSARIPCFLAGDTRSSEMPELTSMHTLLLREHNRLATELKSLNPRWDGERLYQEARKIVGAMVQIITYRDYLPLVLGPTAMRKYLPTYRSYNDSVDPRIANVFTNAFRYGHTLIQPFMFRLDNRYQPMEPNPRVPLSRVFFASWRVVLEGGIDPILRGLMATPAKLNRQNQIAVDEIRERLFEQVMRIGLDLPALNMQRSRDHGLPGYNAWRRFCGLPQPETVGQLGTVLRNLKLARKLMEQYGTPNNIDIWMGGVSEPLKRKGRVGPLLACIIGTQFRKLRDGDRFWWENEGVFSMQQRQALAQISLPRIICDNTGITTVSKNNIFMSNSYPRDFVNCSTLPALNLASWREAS
Rule: IC50 below 2 µM gives 1.0. Equal to or above 2 µM gives 0.0.

CN(C)CCCn1c(=S)[nH]c2cc(F)c(F)cc2c1=O	1.0
CN1CCN(CCCn2c(=S)[nH]c3ccc(F)cc3c2=O)CC1 [LY1-107N]	1.0

Decide: IC50 of O=c1c2cc(F)ccc2[nH]c(=S)n1CCc1cnc[nH]1 strictly below 2 µM?
1.0

Answer whether the compound COc1cc2[nH]c(=S)n(CCCCN(C)C)c(=O)c2cc1OC has IC50 strictly less than 2 µM
0.0

I'd appreciate it if you could check whether CN(C)CCCn1c(=S)[nH]c2ccc(Cl)cc2c1=O has IC50 smaller than 2 µM.
1.0

Below 2 µM on IC50? Entry O=c1c2ccccc2[nH]c(=S)n1CCc1cnc[nH]1
1.0

In plain terms, does O=c1c2ccccc2[nH]c(=S)n1CCN1CCCC1 come in under 2 µM for IC50?
1.0

###

biological target: human Myeloperoxidase (Homo sapiens, UniProt P05164); experiment: Amplex Red assay of purified MPO activity; type: biochemical; details: isolated purified human MPO, hydrogen peroxide as substrate
Measured IC50 values are reported for all entries that follow.
// units = µM; emit number, no label

CCN(CC)CCn1c(=S)[nH]c2ccccc2c1=O [TG6-27-2]	2
COCCCn1c(=S)[nH]c2ccccc2c1=O [LY1-21]	3
CN(C)CCCn1c(=S)[nH]c2ccccc2c1=O [TG6-17-2]	1.5
CN(C)CCCn1c(=S)[nH]c2ccc(F)cc2c1=O [TG6-248]	2

Query compound follows.
Would you kindly share the measured IC50 for COC(=O)c1ccc2c(=O)n(N)c(=S)[nH]c2c1 [AS261b] ?
1.5

Taken from patent US20150110723A1.
